Where do the numbers come from? From patent US10793568B2.

Target: ligand binding domain of human FXR (Homo sapiens (Human), UniProt Q96RI1)
Sequence (Q96RI1 262-486): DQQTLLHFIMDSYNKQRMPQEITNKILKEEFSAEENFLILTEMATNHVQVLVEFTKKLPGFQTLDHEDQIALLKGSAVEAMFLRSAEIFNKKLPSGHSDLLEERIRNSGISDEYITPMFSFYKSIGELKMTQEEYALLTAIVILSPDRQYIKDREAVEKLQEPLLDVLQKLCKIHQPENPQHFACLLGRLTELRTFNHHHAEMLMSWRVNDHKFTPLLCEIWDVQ
Assay: FXR ligand binding assay (LanthaScreen TR-FRET, SRC2-2 peptide recruitment)
Conditions: -log EC50, concentration required to produce 50% activation
Measured attribute: pEC50

Query: Using known records, supply pEC50 for COc1cc(N2C[C@@H]3C[C@H]2C[C@H]3OCc2c(-c3c(Cl)cccc3Cl)noc2C2CC2)ccc1C(=O)O
Response: 9.4

Query: Supply measured pEC50 of O=C(O)c1cc(C2CCOC2)c2nc(N3C[C@@H]4C[C@H]3C[C@H]4OCc3c(-c4c(Cl)cccc4Cl)noc3C3CC3)sc2c1 (stereo partly drawn) in your reply.
Response: 9.1

Query: Report measured pEC50; entry is O=C(O)CCCc1ccc(N2C[C@@H]3C[C@H]2C[C@H]3OCc2c(-c3c(Cl)cccc3Cl)noc2C2CC2)cc1
Response: 7.8

Query: Identify measured pEC50 corresponding to N#Cc1cc(F)c(N2C[C@@H]3C[C@H]2C[C@H]3OCc2c(-c3c(Cl)cccc3Cl)noc2C2CC2)c(F)c1 [Compound I-54a]
Response: 7.0

Query: Specify reported pEC50 for the compound shown: C[C@H]1[C@H]2C[C@H](C[C@@H]2OCc2c(-c3c(Cl)cccc3Cl)noc2C2CC2)N1c1ccc(C(=O)NS(=O)(=O)C2CCOCC2)cn1
Response: 6

Query: Using known records, supply pEC50 for O=C(O)c1cc(C2CCCC2)c2nc(N3C[C@@H]4C[C@H]3C[C@H]4OCc3c(-c4c(Cl)cccc4Cl)noc3C3CC3)sc2c1
Response: 7.8

###

Target: ligand binding domain of human FXR (Homo sapiens (Human))
Test: FXR ligand binding assay (LanthaScreen TR-FRET, SRC2-2 peptide recruitment)
Details: -log EC50, concentration required to produce 50% activation
Protocol: The affinity of FXR ligands for the ligand binding domain of FXR was determined using a commercially available human FXR ligand binding assay (LanthaScreen, Thermofisher Cat # PV4833). […] Test compounds are dissolved in DMSO and a 3-fold serial dilution series is generated, then further diluted into assay buffer. […] The reaction is incubated at room temperature for 1 hour, then the FRET signal is measured as the ratio of the 520 nm/495 nm emission following excitation at 340 nm. […]
Exercise: state measured pEC50 for each of the compounds provided.
Answer with the value's number alone.

Query: Consider the compound CCCS(=O)(=O)NC(=O)c1ccc(N2C[C@@H]3C[C@H]2C[C@H]3OCc2c(-c3c(Cl)cccc3Cl)noc2C2CC2)nc1 and give its recorded pEC50.
Response: 8.4

Query: Give me measured pEC50, please, for this compound: O=C(O)c1ccc(N2C(=O)[C@@H]3C[C@H]2C[C@H]3OCc2c(-c3c(Cl)cccc3Cl)noc2C2CC2)cn1
Response: 7.6

Query: Report measured pEC50; entry is O=C(O)c1ccc2nc(N3C[C@@H]4C[C@H]3C[C@H]4OC(=O)c3c(-c4c(Cl)cccc4Cl)noc3C3CC3)sc2c1
Response: 7.3

Query: Tell us which pEC50 value is on record for O=C(O)c1ccc(N2C(=O)[C@@H]3C[C@H]2C[C@H]3OCc2c(-c3c(Cl)cccc3Cl)noc2C2CC2)cc1C1CC1
Response: 7.4

Query: Read the entry O=C(NCc1nn[nH]n1)c1ccc(N2C[C@@H]3C[C@H]2C[C@H]3OCc2c(-c3c(Cl)cccc3Cl)noc2C2CC2)cc1 and write its reported pEC50.
Response: 9.7

Query: Supply recorded pEC50 for O=C(NS(=O)(=O)C1CCOCC1)c1ccc(N2C[C@@H]3C[C@H]2C[C@H]3OCc2c(C3CCC4(CC3)CC4)noc2C2CC2)c(F)c1 here.
Response: 8

Query: Name the recorded pEC50 of the item CC(=O)OCCCS(=O)(=O)NC(=O)c1ccc(N2C[C@@H]3C[C@H]2C[C@H]3OCc2c(-c3c(Cl)cccc3Cl)noc2C2CC2)cc1 in your answer.
Response: 8.6

Query: Please give the documented pEC50 of O=C(O)c1cc(C2CCOCC2)c2nc(N3C[C@@H]4C[C@H]3C[C@H]4OCc3c(-c4c(F)cccc4Cl)noc3C3CC3)sc2c1
Response: 8.5

Query: # return recorded pEC50 for input O=C(O)c1cnc(N2C[C@@H]3C[C@H]2C[C@H]3OCc2c(-c3c(Cl)cccc3Cl)noc2C2CC2)nc1
Response: 8

Query: Please report pEC50 for the following compound: CC(O)CCS(=O)(=O)NC(=O)c1ccc(N2C[C@@H]3C[C@H]2C[C@H]3OCc2c(-c3c(Cl)cccc3Cl)noc2C2CC2)cc1 (some centres unmarked)
Response: 9.9

Query: Please indicate pEC50 recorded for Cc1cc(N2C(=O)[C@@H]3C[C@H]2C[C@H]3OCc2c(-c3c(Cl)cccc3Cl)noc2C2CC2)ccc1C(=O)O
Response: 7.6

Query: Give reported pEC50 value for O=C(NS(=O)(=O)C1CC1)c1ccc(N2C[C@@H]3C[C@H]2C[C@H]3OCc2c(-c3c(Cl)cccc3Cl)noc2C2(F)CC2)cc1
Response: 8.5

Query: Give a short answer stating reported pEC50 for C[C@@H]1[C@@H]2C[C@@H](C[C@H]2OCc2c(-c3c(Cl)cccc3Cl)noc2C2CC2)N1c1ccc(C(=O)O)cc1F .
Response: 7.1

Query: Return pEC50 for the following compound: O=C(O)c1ccc(N2C[C@@H]3C[C@H]2C[C@H]3OC(=O)c2c(-c3c(Cl)cccc3Cl)noc2C2CC2)c(F)c1
Response: 7.8

Query: Provide pEC50 value for the following compound: O=C(NS(=O)(=O)C1CCCC1)c1ncc(N2C(=O)[C@@H]3C[C@H]2C[C@H]3OCc2c(-c3c(Cl)cccc3Cl)noc2C2CC2)cc1F
Response: 8.6

Query: For CC(=O)OC(C)CCS(=O)(=O)NC(=O)c1ccc(N2C[C@@H]3C[C@H]2C[C@H]3OCc2c(-c3c(Cl)cccc3Cl)noc2C2CC2)cc1 (some centres unmarked) , write its pEC50.
Response: 9.4

Query: Using the record for O=C(O)[C@H]1CCc2cc(N3C[C@@H]4C[C@H]3C[C@H]4OCc3c(-c4c(Cl)cccc4Cl)noc3C3CC3)ccc2C1 (single isomer, unassigned) , state its measured pEC50.
Response: 7.6

Query: Quickly give me recorded pEC50 for O=C(NS(=O)(=O)C1CC1)c1ccc(N2C(=O)[C@@H]3C[C@H]2C[C@H]3OCc2c(-c3c(Cl)cccc3Cl)noc2C2CC2)cc1
Response: 8.6

Query: Using known records, supply pEC50 for O=C(NS(=O)(=O)CC1CCOC1)c1ccc(N2C(=O)[C@@H]3C[C@H]2C[C@H]3OCc2c(-c3c(Cl)cccc3Cl)noc2C2CC2)cc1 (some centres unmarked)
Response: 8.7

Query: Output pEC50 of O=C(O)c1ccc(N2C[C@@H]3C[C@H]2C[C@H]3OCc2c(-c3c(Cl)cccc3Cl)noc2C2CC2)nc1
Response: 7.9
